# TGT: Recombinant human serum albumin (human, UniProt P02768 25-609)
# Sequence (P02768 25-609 limits assumed): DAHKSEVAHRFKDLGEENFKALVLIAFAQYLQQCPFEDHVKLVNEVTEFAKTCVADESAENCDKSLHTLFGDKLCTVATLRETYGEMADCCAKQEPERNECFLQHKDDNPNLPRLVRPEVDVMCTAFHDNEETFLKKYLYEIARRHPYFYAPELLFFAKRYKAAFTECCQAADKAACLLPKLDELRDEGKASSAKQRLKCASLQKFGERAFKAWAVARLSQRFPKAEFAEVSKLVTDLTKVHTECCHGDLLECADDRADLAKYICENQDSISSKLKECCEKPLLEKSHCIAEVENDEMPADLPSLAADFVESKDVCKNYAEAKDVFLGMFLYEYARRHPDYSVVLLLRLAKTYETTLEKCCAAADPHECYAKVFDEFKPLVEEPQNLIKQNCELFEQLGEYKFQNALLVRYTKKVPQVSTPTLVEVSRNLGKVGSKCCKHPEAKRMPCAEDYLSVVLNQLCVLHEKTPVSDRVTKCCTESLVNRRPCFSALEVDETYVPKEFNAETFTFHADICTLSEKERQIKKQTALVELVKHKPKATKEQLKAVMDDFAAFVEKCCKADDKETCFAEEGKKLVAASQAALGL
# ASSAY OVERVIEW: SPR (BIACORE 3000), recombinant HSA immobilized on CM5 chip
PROPERTY MEASURED: pKd
Recall that pKd is obtained by taking minus log10 of the concentration measured in molar.

Query: Answer with the recorded pKd of LAEAKEAANAELDSYGVSDFYKKLIDKAKTVEGVEALKDAILAALP (designed binder) [albumin-binding domain (ABD)] only.
Reply: 11.14
